# assay.name: self-splicing fitness, log relative to wild type (ln ratio); higher = more splicing; Tetrahymena group I intron in knt gene, E. coli kanamycin selection, DiMSum; sequences stand for … in CUCUCU…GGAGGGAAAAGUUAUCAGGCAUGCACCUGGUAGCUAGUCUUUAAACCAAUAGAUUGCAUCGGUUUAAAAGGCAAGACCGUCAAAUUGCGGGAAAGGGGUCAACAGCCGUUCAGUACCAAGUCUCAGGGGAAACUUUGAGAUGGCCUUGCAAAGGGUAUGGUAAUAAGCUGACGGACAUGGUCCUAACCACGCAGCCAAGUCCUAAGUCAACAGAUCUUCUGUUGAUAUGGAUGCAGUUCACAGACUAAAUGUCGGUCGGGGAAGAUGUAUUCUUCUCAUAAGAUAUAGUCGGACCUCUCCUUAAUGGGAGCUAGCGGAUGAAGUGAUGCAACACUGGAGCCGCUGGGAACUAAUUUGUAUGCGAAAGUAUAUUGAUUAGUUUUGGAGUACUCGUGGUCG;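 note: selection with 25 µg/mL kanamycin versus none on LB agar overnight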
# experimental.conditions: 30 °C
# self-splicing fitness (ln) listing for each entry below
Answer with the value's number alone.

GUUCAGCAAUAUUACGAUCC ... -1.37
GGGCAGCAAUAUUACGUGUA ... -2.19
UUACAGCAAUAUUACGGAGU ... -4.03
GGGAAGCAAUAUUACGUGGC ... -2.16

Problem: Find the recorded self-splicing fitness (ln) belonging to AGGUAGCAAUAUUACGACAG and report it.
Result: -1.6

Problem: self-splicing fitness (ln) for AAGCAGCAAUAUUACGAGGA ?
Result: -2.82

Problem: Please give the measured self-splicing fitness (ln) for this sequence: CCCCAGCAAUAUUACGCACC
Result: -2.46

Problem: Request the reported self-splicing fitness (ln) associated with UUUCAGCAAUAUUACGUGGU
Result: -3.84
